test: IV pharmacokinetics in monkey; assay type: in vivo, Cynomolgus monkeys; conditions: cynomolgus monkey, plasma; Monkey, IV 1 mg/kg; read-out: Vss

| MOLECULE | READOUT UNITS | Vd |
| --- | --- | --- |
| Cn1nc(NS(C)(=O)=O)c2c(Cl)ccc(-n3c([C@H](Cc4cc(F)cc(F)c4)NC(=O)Cn4nc(C(F)F)c5c4C(F)(F)[C@@H]4C[C@H]54)nc4nc(OCCC(F)(F)F)ccc4c3=O)c21 (atropisomer, axis not shown; (P)) | L/kg | 1.18 |

###

assay: Cytotoxicity in uninfected MT2 cells, XTT colorimetric assay; format: cell-based; details: human, day 4, XTT

| COMPOUND | CC50 at 4 days |
| --- | --- |
| Cn1nc(NS(C)(=O)=O)c2c(Cl)ccc(-n3c([C@H](Cc4cc(F)cc(F)c4)NC(=O)Cn4nc(C(F)F)c5c4C(F)(F)[C@@H]4C[C@H]54)nc4nc(OCCC(F)(F)F)ccc4c3=O)c21 (atropisomer, axis not shown; (P)) [Example 1] | > 0.5 µM |

###

test: IV pharmacokinetics in mouse; assay type: in vivo, male CD1 mice; details: male, CD1, plasma, IV 1 mg/kg, read-out: Vss
RESULT TYPE: Vd (L/kg)

| COMPOUND | RESULT TYPE | READOUT UNITS | ASSAY RESULT |
| --- | --- | --- | --- |
| Cn1nc(NS(C)(=O)=O)c2c(Cl)ccc(-n3c([C@H](Cc4cc(F)cc(F)c4)NC(=O)Cn4nc(C(F)F)c5c4C(F)(F)[C@@H]4C[C@H]54)nc4nc(OCCC(F)(F)F)ccc4c3=O)c21 (atropisomer, axis not shown; (P)) | Vd | L/kg | 0.24 |

###

assay: Subcutaneous pharmacokinetics in rat; format: in vivo, Wistar Han Rats; conditions: Wistar Han, plasma, SC 20 mg/kg, read-out: apparent half-life of compound in plasma (converted)
RESULT TYPE: half-life (days)

| COMPOUND | ASSAY RESULT |
| --- | --- |
| Cn1nc(NS(C)(=O)=O)c2c(Cl)ccc(-n3c([C@H](Cc4cc(F)cc(F)c4)NC(=O)Cn4nc(C(F)F)c5c4C(F)(F)[C@@H]4C[C@H]54)nc4nc(OCCC(F)(F)F)ccc4c3=O)c21 (atropisomer, axis not shown; (P)) | 13 |

###

experiment: Metabolism in liver microsomes (dog); assay type: in vitro ADME; details: dog, liver microsomes, pH 7.4; 1 μM compound, 1 mg/mL microsomes, NADPH; read-out: Dog liver microsome T1/2
RESULT TYPE: half-life at 1 μM (h)

| COMPOUND | ASSAY RESULT |
| --- | --- |
| Cn1nc(NS(C)(=O)=O)c2c(Cl)ccc(-n3c([C@H](Cc4cc(F)cc(F)c4)NC(=O)Cn4nc(C(F)F)c5c4C(F)(F)[C@@H]4C[C@H]54)nc4nc(OCCC(F)(F)F)ccc4c3=O)c21 (atropisomer, axis not shown; (P)) [Example 1] | 1.75 |

###

test: IV pharmacokinetics in dog; assay type: in vivo, Beagle Dogs; conditions: Beagle, plasma; Dog, IV 1 mg/kg
RESULT TYPE: clearance

| MOLECULE | ASSAY RESULT |
| --- | --- |
| Cn1nc(NS(C)(=O)=O)c2c(Cl)ccc(-n3c([C@H](Cc4cc(F)cc(F)c4)NC(=O)Cn4nc(C(F)F)c5c4C(F)(F)[C@@H]4C[C@H]54)nc4nc(OCCC(F)(F)F)ccc4c3=O)c21 (atropisomer, axis not shown; (P)) [Example 1] | 1.68 mL/min/kg |

Source listed as patent US12129255B2.
